Values were extracted from paper PMC13163009.

molecular target: KEAP1 (Kelch-like ECH-associated protein 1) (Homo sapiens, UniProt Q14145); construct: human recombinant KEAP1 (Gln2-Cys624); test: ITC with recombinant full-length KEAP1; SPR showed PYR modestly increases DLG(W24C) peptide binding to the Kelch domain
Sequence (Q14145 2-624): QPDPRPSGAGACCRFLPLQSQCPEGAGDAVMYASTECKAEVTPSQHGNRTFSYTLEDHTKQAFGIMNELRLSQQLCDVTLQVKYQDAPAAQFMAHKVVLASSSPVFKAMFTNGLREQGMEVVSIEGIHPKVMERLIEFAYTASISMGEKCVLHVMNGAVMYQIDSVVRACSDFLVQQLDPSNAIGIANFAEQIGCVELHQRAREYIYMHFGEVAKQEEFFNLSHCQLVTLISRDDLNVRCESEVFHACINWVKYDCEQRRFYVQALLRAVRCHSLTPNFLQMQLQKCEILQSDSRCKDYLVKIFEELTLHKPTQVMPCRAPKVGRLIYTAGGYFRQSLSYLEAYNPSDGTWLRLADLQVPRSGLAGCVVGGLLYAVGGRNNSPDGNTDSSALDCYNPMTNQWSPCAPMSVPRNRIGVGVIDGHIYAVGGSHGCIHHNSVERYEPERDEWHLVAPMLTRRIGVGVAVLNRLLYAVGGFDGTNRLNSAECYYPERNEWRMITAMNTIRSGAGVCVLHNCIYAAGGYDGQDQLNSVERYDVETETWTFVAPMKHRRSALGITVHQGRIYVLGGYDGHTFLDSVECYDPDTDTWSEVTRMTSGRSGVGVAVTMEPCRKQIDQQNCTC
pKd: −log10 of the molar value.

[
  {
    "molecule": "CCc1nc(N)nc(N)c1-c1ccc(Cl)cc1 [PYR, pyrimethamine]",
    "pKd": 4.89
  }
]
